Provenance of the data: the supplement of paper PMC9233669

Tested on: biotinyl-Val-oxazolone
Test: self-aminoacylation, catalytic enhancement (BVO) (fold over background); higher = more active; k-Seq, kA / k0A0; sequences stand for … in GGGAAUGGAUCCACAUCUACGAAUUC…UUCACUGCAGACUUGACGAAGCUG
Variants at the floor of the assay were thinned out.
Listed here are sequences together with their documented self-aminoacylation.
Readout Label: self-aminoacylation

monomer_sequence="AUUACCGUAGUCAUCGAGUGA [Fam2.1 aminoacylation ribozyme variant]" tested_on=biotinyl-Val-oxazolone reading=3.22
monomer_sequence="CCACACAUCAAGCAAUGGGUC [Fam1B.1 aminoacylation ribozyme variant]" tested_on=biotinyl-Val-oxazolone reading=1.08
monomer_sequence="CCAUACUUCAAGAAAUCGGUC [Fam1B.1 aminoacylation ribozyme variant]" tested_on=biotinyl-Val-oxazolone reading=0.787
monomer_sequence="AUUCACCUAGGUCUUCGGGUG [Fam2.2 aminoacylation ribozyme variant]" tested_on=biotinyl-Val-oxazolone reading=3.71
monomer_sequence="AUUCACCUCGGUCAUCGGGUU [Fam2.2 aminoacylation ribozyme variant]" tested_on=biotinyl-Val-oxazolone reading=2.41
monomer_sequence="CUACUUCAAACAAGCGGCCUG [Fam1A.1 aminoacylation ribozyme variant]" tested_on=biotinyl-Val-oxazolone reading=1.83
monomer_sequence="CUACUUCAACCAAACGGUCUG [Fam1A.1 aminoacylation ribozyme variant]" tested_on=biotinyl-Val-oxazolone reading=0.86
monomer_sequence="AUUAUCCUGGUCAUAGAGUGA [Fam2.1 aminoacylation ribozyme variant]" tested_on=biotinyl-Val-oxazolone reading=4.11

---

Listed here are sequences together with their documented self-aminoacylation.
Test system: biotinyl-Trp-oxazolone
Test: self-aminoacylation, catalytic enhancement (BWO) (fold over background); higher = more active; k-Seq, kA / k0A0; sequences stand for … in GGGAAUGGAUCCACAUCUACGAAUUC…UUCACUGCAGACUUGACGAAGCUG
Fewer inactive variants are shown than the library holds.
Readout Label: self-aminoacylation

monomer_sequence="AAGUUUGCUAAUAGUCGGAAG [Fam3.1 aminoacylation ribozyme variant]" reading=4.58
monomer_sequence="AGUCAACUAGGUCAUCGGGUG [Fam2.2 aminoacylation ribozyme variant]" reading=9.37
monomer_sequence="CCACACUUCAUGCAAUGGGUC [Fam1B.1 aminoacylation ribozyme variant]" reading=0.569
monomer_sequence="CUACUUCAAAUAAUCGGUUUG [Fam1A.1 aminoacylation ribozyme variant]" reading=8.58
monomer_sequence="AAGUUUGCUAAUAGUCGUCAG [Fam3.1 aminoacylation ribozyme variant]" reading=1.26

---

Test system: biotinyl-Trp-oxazolone
Test: self-aminoacylation, catalytic enhancement (BWO) (fold over background); higher = more active; k-Seq, kA / k0A0; sequences stand for … in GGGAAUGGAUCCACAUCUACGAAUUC…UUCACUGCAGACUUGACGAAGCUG
Variants at the floor of the assay were thinned out.
Listed here are sequences together with their documented self-aminoacylation.
Readout Label: self-aminoacylation

monomer_sequence="AUUGCCCUGGUCAUCGAGUUA [Fam2.1 aminoacylation ribozyme variant]" readout_label=self-aminoacylation reading=4.44
monomer_sequence="AAGGCUGCUAAUAGUCGCAAG [Fam3.1 aminoacylation ribozyme variant]" readout_label=self-aminoacylation reading=7.19
monomer_sequence="AUUUCCCUGGUCAUUGAGUGA [Fam2.1 aminoacylation ribozyme variant]" readout_label=self-aminoacylation reading=10
monomer_sequence="CCACACUUCGAGCAAUCGGCC [Fam1B.1 aminoacylation ribozyme variant]" readout_label=self-aminoacylation reading=2.11
monomer_sequence="AAAUUUGCUAAUAGUCGCAAA [Fam3.1 aminoacylation ribozyme variant]" readout_label=self-aminoacylation reading=3.82
monomer_sequence="CCACACUUCAAGAUAUCGGUC [Fam1B.1 aminoacylation ribozyme variant]" readout_label=self-aminoacylation reading=0.657
monomer_sequence="AAGCUUGCUAAUAGUAGCAAG [Fam3.1 aminoacylation ribozyme variant]" readout_label=self-aminoacylation reading=2.48
monomer_sequence="AAGUUGGCUAAUUGUCGCAAG [Fam3.1 aminoacylation ribozyme variant]" readout_label=self-aminoacylation reading=2.71
monomer_sequence="AUUCACCUUGGACAUCGGGUG [Fam2.2 aminoacylation ribozyme variant]" readout_label=self-aminoacylation reading=2.97
monomer_sequence="AUUAUCCUGAUCAUCGAGUGA [Fam2.1 aminoacylation ribozyme variant]" readout_label=self-aminoacylation reading=11.8
monomer_sequence="AUCACCCUGUUCAUCGAGUGA [Fam2.1 aminoacylation ribozyme variant]" readout_label=self-aminoacylation reading=5.52
monomer_sequence="AAGUUUGCUAAUAUUAGCAAG [Fam3.1 aminoacylation ribozyme variant]" readout_label=self-aminoacylation reading=1.3
monomer_sequence="CAGUUUGCUAAUAGUCGCAUG [Fam3.1 aminoacylation ribozyme variant]" readout_label=self-aminoacylation reading=2.07
monomer_sequence="AUCCACCUGGGUCAUCGGGUG [Fam2.2 aminoacylation ribozyme variant]" readout_label=self-aminoacylation reading=7.25
monomer_sequence="AUUACCCUGGUCAUACAGUGA [Fam2.1 aminoacylation ribozyme variant]" readout_label=self-aminoacylation reading=5.95
monomer_sequence="CUACUUCACACAGUCGGUCUG [Fam1A.1 aminoacylation ribozyme variant]" readout_label=self-aminoacylation reading=0.682
monomer_sequence="AUUCCCCCAGGUCAUCGGGUG [Fam2.2 aminoacylation ribozyme variant]" readout_label=self-aminoacylation reading=17.1
monomer_sequence="AAGUUCGCUAAAAGUCGCAAG [Fam3.1 aminoacylation ribozyme variant]" readout_label=self-aminoacylation reading=3.39

---

Tested on: biotinyl-Val-oxazolone
Test: self-aminoacylation, catalytic enhancement (BVO) (fold over background); higher = more active; k-Seq, kA / k0A0; sequences stand for … in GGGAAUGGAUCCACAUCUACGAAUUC…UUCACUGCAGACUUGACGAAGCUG
Fewer inactive variants are shown than the library holds.
Outcome label depends on self-aminoacylation relative to 1: at/above gives true, below gives false.

monomer_sequence="CCACCCUUCAAGCAAUCGGCC [Fam1B.1 aminoacylation ribozyme variant]" label=true
monomer_sequence="CUACUUCCAACAAUCGGUCUG [Fam1A.1 aminoacylation ribozyme variant]" label=false
monomer_sequence="AUUCACCUAUGUCAUCGGGUG [Fam2.2 aminoacylation ribozyme variant]" label=true
monomer_sequence="CUACUUCAGACAAUCGGUGUG [Fam1A.1 aminoacylation ribozyme variant]" label=true
monomer_sequence="AUUACCCUGGUCAUCGAUUGC [Fam2.1 aminoacylation ribozyme variant]" label=false
monomer_sequence="UCUCACUUCAAGCAAUCGGUC [Fam1B.1 aminoacylation ribozyme variant]" label=true
monomer_sequence="AAGCUUGCUAAUACUCGCAAG [Fam3.1 aminoacylation ribozyme variant]" label=true
monomer_sequence="UUUCACCUAGGUCAUCGGAUG [Fam2.2 aminoacylation ribozyme variant]" label=true

---

System: biotinyl-Ile-oxazolone
Test: self-aminoacylation, catalytic enhancement (BIO) (fold over background); higher = more active; k-Seq, kA / k0A0; sequences stand for … in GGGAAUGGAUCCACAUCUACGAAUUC…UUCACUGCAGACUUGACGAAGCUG
This sample holds only a part of the variants without activity.
Outcome label depends on self-aminoacylation relative to 2: at/above gives Fulfilled, below gives Not fulfilled.

monomer_sequence="AUUACCCUGUCCAUCGAGUGA [Fam2.1 aminoacylation ribozyme variant]" label=Fulfilled
monomer_sequence="CUACUUCAAACACUCGGACUG [Fam1A.1 aminoacylation ribozyme variant]" label="Not fulfilled"
monomer_sequence="AUGACCCUGGUGAUCGAGUGA [Fam2.1 aminoacylation ribozyme variant]" label=Fulfilled
monomer_sequence="CUAAUUCAAACAAUCGGUCUU [Fam1A.1 aminoacylation ribozyme variant]" label="Not fulfilled"
monomer_sequence="CUACUUCAAACAAUCUUUCUG [Fam1A.1 aminoacylation ribozyme variant]" label="Not fulfilled"
monomer_sequence="AAGUUUGCUAAUAGUCACGAG [Fam3.1 aminoacylation ribozyme variant]" label="Not fulfilled"
monomer_sequence="AUUCACCUAGGUUAUUGGGUG [Fam2.2 aminoacylation ribozyme variant]" label=Fulfilled
monomer_sequence="AAGUUUGCUAAUAGUGGCAAG [Fam3.1 aminoacylation ribozyme variant]" label="Not fulfilled"
monomer_sequence="AUUCACCUGGGUCAUCCGGUG [Fam2.2 aminoacylation ribozyme variant]" label=Fulfilled
monomer_sequence="AAGUUCGCUUAUAGUCGCAAG [Fam3.1 aminoacylation ribozyme variant]" label="Not fulfilled"
monomer_sequence="AUUCAUCUAGGUCAUCGGGUC [Fam2.2 aminoacylation ribozyme variant]" label="Not fulfilled"
monomer_sequence="AAGUUUGCUAAACGUCGCAAG [Fam3.1 aminoacylation ribozyme variant]" label="Not fulfilled"
monomer_sequence="AUCACCCUGGUCAUCGCGUGA [Fam2.1 aminoacylation ribozyme variant]" label=Fulfilled
monomer_sequence="AAGUUUGCUAAUGGUAGCAAG [Fam3.1 aminoacylation ribozyme variant]" label="Not fulfilled"
monomer_sequence="CAACUUCAAAAAAUCGGUCUG [Fam1A.1 aminoacylation ribozyme variant]" label="Not fulfilled"
monomer_sequence="AUUCCUCUAGGUCAUCGGGUG [Fam2.2 aminoacylation ribozyme variant]" label=Fulfilled
monomer_sequence="CUACUUCAAAAAAUCGAUCUG [Fam1A.1 aminoacylation ribozyme variant]" label="Not fulfilled"
monomer_sequence="GUUCACCUAGGUAAUCGGGUG [Fam2.2 aminoacylation ribozyme variant]" label=Fulfilled
monomer_sequence="AUUCACAUAGUUCAUCGGGUG [Fam2.2 aminoacylation ribozyme variant]" label=Fulfilled
monomer_sequence="CUCCUUCAUACAAUCGGUCUG [Fam1A.1 aminoacylation ribozyme variant]" label="Not fulfilled"
monomer_sequence="AUUGCCCUGGUCAUCCAGUGA [Fam2.1 aminoacylation ribozyme variant]" label=Fulfilled
monomer_sequence="AUUACCCAGAUCAUCGAGUGA [Fam2.1 aminoacylation ribozyme variant]" label=Fulfilled
monomer_sequence="UUUCACCUAGGUCAUCGGAUG [Fam2.2 aminoacylation ribozyme variant]" label="Not fulfilled"
monomer_sequence="AGUCACCUAGGUAAUCGGGUG [Fam2.2 aminoacylation ribozyme variant]" label=Fulfilled
monomer_sequence="AUCACCCUGCUCAUCGAGUGA [Fam2.1 aminoacylation ribozyme variant]" label="Not fulfilled"
monomer_sequence="AAGCUUGCUAAUAGUCGGAAG [Fam3.1 aminoacylation ribozyme variant]" label="Not fulfilled"
monomer_sequence="AUUCUCCUAGGUCAUCAGGUG [Fam2.2 aminoacylation ribozyme variant]" label=Fulfilled
monomer_sequence="AAUCACCUGGGUCAUCGGGUG [Fam2.2 aminoacylation ribozyme variant]" label=Fulfilled
monomer_sequence="AUUACCGUGGUCAUCUAGUGA [Fam2.1 aminoacylation ribozyme variant]" label=Fulfilled
monomer_sequence="CUACUUCAAACAAGCUGUCUG [Fam1A.1 aminoacylation ribozyme variant]" label="Not fulfilled"
monomer_sequence="CUACUUCGCACAAUCGGUCUG [Fam1A.1 aminoacylation ribozyme variant]" label="Not fulfilled"
monomer_sequence="AAGUUCGCUAAUAGUAGCAAG [Fam3.1 aminoacylation ribozyme variant]" label="Not fulfilled"
monomer_sequence="AAGUUUCCUAAUAGACGCAAG [Fam3.1 aminoacylation ribozyme variant]" label="Not fulfilled"
monomer_sequence="CGACUUCAAACAAUCGCUCUG [Fam1A.1 aminoacylation ribozyme variant]" label="Not fulfilled"
